All values here come from patent US4973578A.

target: TSH receptor on human thyroid membranes (Homo sapiens)
Sequence (P16473 21-764): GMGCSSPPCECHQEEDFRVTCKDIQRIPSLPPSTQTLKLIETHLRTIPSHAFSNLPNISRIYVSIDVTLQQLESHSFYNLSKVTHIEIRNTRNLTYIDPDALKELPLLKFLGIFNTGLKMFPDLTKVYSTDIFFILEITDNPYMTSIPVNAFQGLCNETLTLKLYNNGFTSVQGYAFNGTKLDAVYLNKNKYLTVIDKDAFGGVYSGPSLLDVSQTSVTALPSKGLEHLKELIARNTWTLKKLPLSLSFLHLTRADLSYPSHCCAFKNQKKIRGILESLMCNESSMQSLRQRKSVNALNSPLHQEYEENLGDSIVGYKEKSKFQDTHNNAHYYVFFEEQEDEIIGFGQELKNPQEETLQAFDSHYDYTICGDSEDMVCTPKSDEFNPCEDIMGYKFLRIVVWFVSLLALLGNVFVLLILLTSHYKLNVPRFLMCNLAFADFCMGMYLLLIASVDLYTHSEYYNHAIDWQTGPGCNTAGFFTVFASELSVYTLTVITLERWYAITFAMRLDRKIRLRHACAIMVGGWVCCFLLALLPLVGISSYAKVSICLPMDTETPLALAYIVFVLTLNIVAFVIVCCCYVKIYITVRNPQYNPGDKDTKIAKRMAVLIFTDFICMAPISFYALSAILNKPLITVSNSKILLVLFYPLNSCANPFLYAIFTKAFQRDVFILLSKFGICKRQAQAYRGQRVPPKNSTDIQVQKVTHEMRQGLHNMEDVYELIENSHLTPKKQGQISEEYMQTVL
Residues, ends and D or L forms follow the SMILES beside them.
reported_property: IC50 (µM)
Return type: number; implicit unit µM.

## Input Requested field: IC50. Item: CC(C)[C@H](NC(=O)[C@H](CS)NC(=O)[C@H](CS)NC(=O)[C@@H](NC(=O)[C@H](CO)NC(=O)[C@H](CCC(=O)O)NC(=O)[C@H](CO)NC(=O)[C@@H](NC(=O)[C@@H](NC(=O)[C@H](CC(N)=O)NC(=O)[C@@H](N)CCCCN)C(C)C)[C@@H](C)O)[C@@H](C)O)C(=O)N[C@@H](C)C(=O)N[C@@H](CCCCN)C(=O)N[C@@H](CO)C(=O)N[C@@H](Cc1ccc(O)cc1)C(N)=O [α51-65] (H-KNVTSESTCCVAKSY-NH2)
## Output 237
